// data source = patent US11406620B2

Target: hNav1.5 sodium channel, late current (Homo sapiens, UniProt Q14524)
Sequence (Q14524 whole entry): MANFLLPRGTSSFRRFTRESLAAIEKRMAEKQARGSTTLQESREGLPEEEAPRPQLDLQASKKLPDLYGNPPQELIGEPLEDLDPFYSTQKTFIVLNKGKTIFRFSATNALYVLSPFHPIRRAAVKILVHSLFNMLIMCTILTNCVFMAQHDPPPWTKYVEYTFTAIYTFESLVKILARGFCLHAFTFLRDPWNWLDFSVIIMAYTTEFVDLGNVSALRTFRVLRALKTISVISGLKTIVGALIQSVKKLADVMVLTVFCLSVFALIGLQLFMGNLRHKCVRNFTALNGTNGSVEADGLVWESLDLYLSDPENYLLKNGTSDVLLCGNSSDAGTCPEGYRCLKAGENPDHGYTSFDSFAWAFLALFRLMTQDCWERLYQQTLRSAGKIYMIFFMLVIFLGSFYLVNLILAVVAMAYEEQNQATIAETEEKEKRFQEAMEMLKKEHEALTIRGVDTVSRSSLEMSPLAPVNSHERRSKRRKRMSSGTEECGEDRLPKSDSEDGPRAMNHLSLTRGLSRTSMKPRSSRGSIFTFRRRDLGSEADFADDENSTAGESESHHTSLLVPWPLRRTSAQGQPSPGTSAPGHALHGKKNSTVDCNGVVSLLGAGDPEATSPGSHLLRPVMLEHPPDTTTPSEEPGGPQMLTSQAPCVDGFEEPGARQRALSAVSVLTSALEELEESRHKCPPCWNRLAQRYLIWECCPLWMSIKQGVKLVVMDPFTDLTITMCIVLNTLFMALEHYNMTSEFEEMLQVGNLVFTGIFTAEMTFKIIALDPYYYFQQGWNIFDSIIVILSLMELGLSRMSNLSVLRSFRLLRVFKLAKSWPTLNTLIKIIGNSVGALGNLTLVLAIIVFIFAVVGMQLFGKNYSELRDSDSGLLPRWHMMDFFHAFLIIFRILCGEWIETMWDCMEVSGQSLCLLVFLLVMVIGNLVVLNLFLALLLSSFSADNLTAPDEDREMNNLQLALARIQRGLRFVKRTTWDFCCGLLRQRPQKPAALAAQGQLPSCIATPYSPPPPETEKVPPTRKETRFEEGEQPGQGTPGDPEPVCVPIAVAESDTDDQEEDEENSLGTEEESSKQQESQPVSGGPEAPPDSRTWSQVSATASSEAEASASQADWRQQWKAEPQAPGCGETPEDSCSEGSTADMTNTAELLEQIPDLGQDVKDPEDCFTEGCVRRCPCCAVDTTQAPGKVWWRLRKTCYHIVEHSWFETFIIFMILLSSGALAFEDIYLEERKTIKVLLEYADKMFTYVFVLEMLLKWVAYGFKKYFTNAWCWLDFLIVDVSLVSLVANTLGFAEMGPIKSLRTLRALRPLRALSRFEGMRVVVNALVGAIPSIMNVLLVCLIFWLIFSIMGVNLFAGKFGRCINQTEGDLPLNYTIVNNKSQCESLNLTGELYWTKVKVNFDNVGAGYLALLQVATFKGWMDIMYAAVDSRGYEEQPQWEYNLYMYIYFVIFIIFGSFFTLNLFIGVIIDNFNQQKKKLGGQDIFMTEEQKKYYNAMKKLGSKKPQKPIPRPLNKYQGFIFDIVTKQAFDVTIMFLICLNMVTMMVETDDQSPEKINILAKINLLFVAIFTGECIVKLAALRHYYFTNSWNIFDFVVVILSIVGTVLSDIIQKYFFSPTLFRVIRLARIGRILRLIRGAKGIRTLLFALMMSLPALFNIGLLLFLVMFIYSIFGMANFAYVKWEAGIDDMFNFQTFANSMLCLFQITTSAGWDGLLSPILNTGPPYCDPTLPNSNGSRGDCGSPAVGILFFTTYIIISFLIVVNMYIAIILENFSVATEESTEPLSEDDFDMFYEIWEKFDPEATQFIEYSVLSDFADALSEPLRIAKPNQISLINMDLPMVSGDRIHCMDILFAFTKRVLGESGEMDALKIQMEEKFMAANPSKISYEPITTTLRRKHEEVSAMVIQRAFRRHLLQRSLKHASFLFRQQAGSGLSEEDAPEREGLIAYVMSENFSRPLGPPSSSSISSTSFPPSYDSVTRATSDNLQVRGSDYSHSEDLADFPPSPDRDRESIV
Test: Whole cell patch clamp, late sodium current of hNav1.5 in HEK293 cells (veratridine-activated)
Settings: human, pH 7.4
Measured Quantity: inhibition at 30 μM (%)

NC(=O)O[C@@H](Cn1ncnn1)c1ccccc1Cl: 24

----------
Target: hNav1.5 sodium channel, late current (Homo sapiens, UniProt Q14524)
Experiment: Whole cell patch clamp, late sodium current of hNav1.5 in HEK293 cells (veratridine-activated)
Conditions: human, pH 7.4
Measured Quantity: inhibition at 100 μM (%)

NC(=O)O[C@@H](Cn1ncnn1)c1ccccc1Cl [Test compound]: 33.9

----------
Biological target: hNav1.5 sodium channel, fast current (Homo sapiens)
Assay: Whole cell patch clamp, fast sodium current of hNav1.5 in HEK293 cells
Conditions: HEK293 cells stably expressing human Nav1.5 (SCN5A), pH 7.4
Measured Quantity: inhibition at 30 μM (%)

Nc1nnc(-c2cccc(Cl)c2Cl)c(N)n1 [Lamotrigine, lamotrigine]: 16.6
NC(=O)N1c2ccccc2C=Cc2ccccc21 [Carbamazepine]: 12.3

----------
Biological target: hNav1.5 sodium channel, fast current (Homo sapiens)
Experiment: Whole cell patch clamp, fast sodium current of hNav1.5 in HEK293 cells
Settings: HEK293 cells stably expressing human Nav1.5 (SCN5A), pH 7.4
Catalogue of inhibition at 100 μM values
Measured Quantity: inhibition at 100 μM

NC(=O)N1c2ccccc2C=Cc2ccccc21 [Carbamazepine]: 24.5%
Nc1nnc(-c2cccc(Cl)c2Cl)c(N)n1 [Lamotrigine, lamotrigine]: 29%

----------
Molecular target: hNav1.5 sodium channel, late current (Homo sapiens, UniProt Q14524)
Assay: Whole cell patch clamp, late sodium current of hNav1.5 in HEK293 cells (veratridine-activated)
Conditions: human, HEK293 cells stably expressing human Nav1.5 (SCN5A), pH 7.4
Measured Quantity: inhibition at 10 μM (%)

NC(=O)N1c2ccccc2C=Cc2ccccc21 [Carbamazepine]: 20.4
Nc1nnc(-c2cccc(Cl)c2Cl)c(N)n1: 10.7

----------
Recorded inhibition at 10 μM by entry
Target: hNav1.5 sodium channel, fast current (Homo sapiens, UniProt Q14524)
Experiment: Whole cell patch clamp, fast sodium current of hNav1.5 in HEK293 cells
Details: HEK293 cells stably expressing human Nav1.5 (SCN5A), pH 7.4
Procedure: To study the […] Nav1.5 channel, a cell line stably expressing […] (Gene ID: 6331, https://www.ncbi.nlm.nih.gov/gene/6331) encoding a human Nav1.5 channel in HEK293 cells was used. Pulse-protocol uses a protocol that gives a −15 mV stimulus for 385 ms at a holding voltage of −120 mV, and then returns to a holding voltage of −120 mV, and the current generated with the −15 mV stimulus (fast current) and the current just before returning to −120 mV (late current) was measured. […]
Measured Quantity: inhibition at 10 μM (%)

NC(=O)N1c2ccccc2C=Cc2ccccc21 [Carbamazepine]: 7.7
Nc1nnc(-c2cccc(Cl)c2Cl)c(N)n1: 8.3

----------
Target: hNav1.5 sodium channel, late current (Homo sapiens, UniProt Q14524)
Assay: Whole cell patch clamp, late sodium current of hNav1.5 in HEK293 cells (veratridine-activated)
Conditions: human, HEK293 cells stably expressing human Nav1.5 (SCN5A), pH 7.4
Measured Quantity: inhibition at 30 μM

NC(=O)N1c2ccccc2C=Cc2ccccc21 [Carbamazepine]: 36.2%
Nc1nnc(-c2cccc(Cl)c2Cl)c(N)n1: 32.9%

----------
Biological target: hNav1.5 sodium channel, fast current (Homo sapiens, UniProt Q14524)
Assay: Whole cell patch clamp, fast sodium current of hNav1.5 in HEK293 cells
Details: pH 7.4
Measured Quantity: inhibition at 100 μM (%)

NC(=O)O[C@@H](Cn1ncnn1)c1ccccc1Cl [Test compound]: 13

----------
Overview of reported inhibition at 300 μM across a group of compounds:
Molecular target: hNav1.5 sodium channel, late current (Homo sapiens)
Assay: Whole cell patch clamp, late sodium current of hNav1.5 in HEK293 cells (veratridine-activated)
Details: human, HEK293 cells stably expressing human Nav1.5 (SCN5A), pH 7.4
Measured Quantity: inhibition at 300 μM (%)

NC(=O)N1c2ccccc2C=Cc2ccccc21 [Carbamazepine]: 86.9
Nc1nnc(-c2cccc(Cl)c2Cl)c(N)n1: 80.1

----------
Biological target: hNav1.5 sodium channel, late current (Homo sapiens)
Assay: Whole cell patch clamp, late sodium current of hNav1.5 in HEK293 cells (veratridine-activated)
Conditions: human, pH 7.4
Method: To study the […] Nav1.5 channel, a cell line stably expressing […] (Gene ID: 6331, https://www.ncbi.nlm.nih.gov/gene/6331) encoding a human Nav1.5 channel in HEK293 cells was used. Pulse-protocol uses a protocol that gives a −15 mV stimulus for 385 ms at a holding voltage of −120 mV, and then returns to a holding voltage of −120 mV, and the current generated with the −15 mV stimulus (fast current) and the current just before returning to −120 mV (late current) was measured. […]
Measured Quantity: inhibition at 10 μM (%)

NC(=O)O[C@@H](Cn1ncnn1)c1ccccc1Cl: 11.4

----------
inhibition at 300 μM for assorted compounds
Target: hNav1.5 sodium channel, fast current (Homo sapiens, UniProt Q14524)
Experiment: Whole cell patch clamp, fast sodium current of hNav1.5 in HEK293 cells
Settings: HEK293 cells stably expressing human Nav1.5 (SCN5A), pH 7.4
Measured Quantity: inhibition at 300 μM (%)

NC(=O)N1c2ccccc2C=Cc2ccccc21 [Carbamazepine]: 51.4
Nc1nnc(-c2cccc(Cl)c2Cl)c(N)n1: 51.2
